- Target Entity: human AhR (Homo sapiens, UniProt P35869)
- Sequence (P35869 11-848): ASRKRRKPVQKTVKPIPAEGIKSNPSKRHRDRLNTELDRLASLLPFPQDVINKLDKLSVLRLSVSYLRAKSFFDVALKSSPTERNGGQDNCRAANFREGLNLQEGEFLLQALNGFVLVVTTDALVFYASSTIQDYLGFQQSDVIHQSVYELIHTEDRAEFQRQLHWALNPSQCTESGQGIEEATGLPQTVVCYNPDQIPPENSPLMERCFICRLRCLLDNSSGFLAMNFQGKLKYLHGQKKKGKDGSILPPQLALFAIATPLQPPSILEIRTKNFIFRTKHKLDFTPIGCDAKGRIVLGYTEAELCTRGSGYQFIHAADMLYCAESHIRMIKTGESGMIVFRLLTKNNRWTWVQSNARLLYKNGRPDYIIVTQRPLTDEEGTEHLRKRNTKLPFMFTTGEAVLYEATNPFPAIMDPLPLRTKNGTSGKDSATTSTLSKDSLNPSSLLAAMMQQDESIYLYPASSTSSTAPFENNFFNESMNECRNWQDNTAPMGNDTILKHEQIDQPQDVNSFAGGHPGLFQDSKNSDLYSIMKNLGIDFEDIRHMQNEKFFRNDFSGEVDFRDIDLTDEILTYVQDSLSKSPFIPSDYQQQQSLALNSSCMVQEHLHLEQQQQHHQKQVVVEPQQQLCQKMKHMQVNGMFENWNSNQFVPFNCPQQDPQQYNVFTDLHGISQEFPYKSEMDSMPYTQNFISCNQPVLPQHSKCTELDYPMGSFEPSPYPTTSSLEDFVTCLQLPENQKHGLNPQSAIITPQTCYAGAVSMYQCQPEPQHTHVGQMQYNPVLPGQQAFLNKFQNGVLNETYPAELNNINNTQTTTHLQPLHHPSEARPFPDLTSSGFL
- Test: cyp1a1 promoter β-lactamase reporter gene assay for AhR activation (CYP1A1-bla-LS180 cells)
- Experimental Parameters: read-out: EC50 of standard AhR ligand in cyp1a1 reporter assay; control experiments, data not shown
pEC50: −log10 of the molar value.
Measure: pEC50

Clc1cc2c(cc1Cl)Oc1cc(Cl)c(Cl)cc1O2 [TCDD, reference compound]: 9.51

---

- Test: Photostability test of DMSO-d6 solutions by 1H NMR (maleic acid internal reference)
- Format: physicochemical
- Experimental Parameters: DMSO-d6 solution in clear Flint glass bottle; DMSO-d6 solution, air and light, 11000 lux, clear Flint bottle; read-out: half-life of decomposition (converted)
Measure: half-life at 3 mg/mL

O=Cc1c2[nH]c3ccccc3c2cc2[nH]c3ccccc3c12 [FICZ (1), 6-Formylindolo[3,2-b]carbazole]: ~3 h

Measured values drawn from paper PMC6620467 for this set.
